src = the supplement of paper PMC7877785

Listed below: self-splicing fitness (ln) values for each entry.
test: self-splicing fitness, log relative to wild type (ln ratio); higher = more splicing; Tetrahymena group I intron in knt gene, E. coli kanamycin selection, DiMSum; sequences stand for … in CUCUCU…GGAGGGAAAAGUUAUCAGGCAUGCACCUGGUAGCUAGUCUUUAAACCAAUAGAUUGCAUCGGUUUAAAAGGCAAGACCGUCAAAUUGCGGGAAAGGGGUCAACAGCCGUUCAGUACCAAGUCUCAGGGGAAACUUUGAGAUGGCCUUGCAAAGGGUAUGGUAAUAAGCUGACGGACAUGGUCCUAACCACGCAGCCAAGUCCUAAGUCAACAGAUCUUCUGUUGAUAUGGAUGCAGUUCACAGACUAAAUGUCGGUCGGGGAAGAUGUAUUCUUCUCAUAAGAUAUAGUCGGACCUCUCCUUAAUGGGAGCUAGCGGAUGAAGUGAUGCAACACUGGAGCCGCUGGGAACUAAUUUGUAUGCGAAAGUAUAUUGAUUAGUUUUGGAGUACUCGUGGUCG; details: 37 °C;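 also: selection with 25 µg/mL kanamycin versus none on LB agar overnight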
Just the number.

In the examples that follow, each entry is paired with its recorded self-splicing fitness (ln).
>>> experimental_result("GUAGAGCAAUAUUACGUUAC")
-0.785
>>> experimental_result("GCUAAGCAAUAUUACGAAUG")
-0.433

Proceeding to the next sequence to report its self-splicing fitness (ln).
// query Output measured self-splicing fitness (ln) for this item: `ACCCAGCAAUAUUACGCCCA`
// result -0.4

* * *

assay: self-splicing fitness, log relative to wild type (ln ratio); higher = more splicing; Tetrahymena group I intron in knt gene, E. coli kanamycin selection, DiMSum; sequences stand for … in CUCUCU…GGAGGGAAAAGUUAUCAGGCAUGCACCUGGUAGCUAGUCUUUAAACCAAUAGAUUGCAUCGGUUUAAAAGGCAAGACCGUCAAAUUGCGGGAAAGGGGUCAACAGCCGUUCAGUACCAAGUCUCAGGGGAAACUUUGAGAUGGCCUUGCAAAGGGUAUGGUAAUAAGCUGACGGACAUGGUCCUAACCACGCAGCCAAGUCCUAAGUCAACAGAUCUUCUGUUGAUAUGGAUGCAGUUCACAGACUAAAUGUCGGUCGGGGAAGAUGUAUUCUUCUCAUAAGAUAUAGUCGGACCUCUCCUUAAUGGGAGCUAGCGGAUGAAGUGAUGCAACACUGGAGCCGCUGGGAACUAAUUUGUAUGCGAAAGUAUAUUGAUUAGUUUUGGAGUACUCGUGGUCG; settings: 37 °C
ENDPOINT_LABEL: self-splicing fitness (ln)
Just the number.

In the examples that follow, each entry is paired with its recorded self-splicing fitness (ln).
>>> experimental_result("ACUUAGCAAUAUUACGUACC")
-1.06
>>> experimental_result("CUUUAGCAAUAUUACGAAGG")
-1.85
>>> experimental_result("GAGGAGCAAUAUUACGCUUC")
-3.68
>>> experimental_result("UAAUAGCAAUAUUACGGCUU")
-0.115

// query Output measured self-splicing fitness (ln) for this item: `AUUCAGCAAUAUUACGACCU`
// result 0.317

// query Output measured self-splicing fitness (ln) for this item: `GCACAGCAAUAUUACGUGAG`
// result 0.0342

// query Output measured self-splicing fitness (ln) for this item: `AGCCAGCAAUAUUACGGUCC`
// result -0.461

// query Output measured self-splicing fitness (ln) for this item: `ACAAAGCAAUAUUACGCAGA`
// result -1.06

// query Output measured self-splicing fitness (ln) for this item: `AUCCAGCAAUAUUACGCGUC`
// result -1.3

// query Output measured self-splicing fitness (ln) for this item: `GUGCAGCAAUAUUACGAGUU`
// result -1.62

// query Output measured self-splicing fitness (ln) for this item: `ACCUAGCAAUAUUACGAACA`
// result 0.383

// query Output measured self-splicing fitness (ln) for this item: `CGUCAGCAAUAUUACGGCUU`
// result -0.493

// query Output measured self-splicing fitness (ln) for this item: `GCGUAGCAAUAUUACGGUGG`
// result -3.39
